target: PcrV of P. aeruginosa strain PA103 (on TTSS-induced bacteria) (Pseudomonas aeruginosa strain PA103); assay: cell-based or functional assay
endpoint.label: Efficacy (%), P3X63 cytotoxicity, MOI 12

Ask: // Efficacy (%), P3X63 cytotoxicity, MOI 12 lookup, key: Nanobody 308 (6B05-40GS-1E11) (VHH) EVQLVESGGGLVQPGGSLRLSCAASGSIFSINTMGWYRQAPGKQRELVSTITSNLVPHYADSVQGRFTISRDNARNTVYLQMNSLKPQDTAHYYCNAWARSSGATPYTNYWGQGTLVTVSSGGGGSGGGGSGGGGSGGGGSGGGGSGGGGSGGGGSGGGGSEVQLVESGGGLVQPGGSLRLSCAASGSTRSVNPMAWFRQAPGRQREWVATISRSGYATYADSVKGRFTISGDNAKSSVYLQMNSLKPEDTAVYYCVTGTYWGQGTLVTVSS
Result: 100%
